Taken from patent US20250230193A1.

target.of.assay: GDP-bound KRAS wild-type protein (Homo sapiens)
run.description: Binding to KRAS by surface plasmon resonance (SPR), Single Cycle Kinetics
condition.context: SPR, Single Cycle Kinetics; GDP-bound KRAS wild-type protein
pKd: −log10 of the molar value.

[
  {
    "compound": "CCO[C@@H]1C[C@H]2C(=O)NC3(CCC3)C(=O)N(C)[C@@H](C(CC)CC)C(=O)N(C)C(C(C)C)CC(=O)N(C)[C@@H](CC3CC3)C(=O)N[C@@H]([C@@H](C)CC)C(=O)N(C)CC(=O)N(C)[C@H]3C/C=C\\CCN(C3=O)[C@@H](Cc3ccc(C(F)(F)F)cc3)C(=O)N(C)CC(=O)N[C@@H](CCc3cc(F)c(C(F)(F)F)c(F)c3)C(=O)N2C1 (stereo partly drawn)",
    "pKd": 8.64
  },
  {
    "compound": "CCO[C@@H]1C[C@H]2C(=O)NC3(CCC3)C(=O)N(C)[C@@H](C3CCCC3)C(=O)N(C)[C@H](C(=O)N3CCOCC3)CC(=O)N(C)[C@@H](CC(C)C)C(=O)N[C@@H]([C@@H](C)CC)C(=O)N(C)CC(=O)N(C)[C@H]3CCCCCN(C3=O)[C@@H](Cc3ccc(F)cc3F)C(=O)N(C)CC(=O)N[C@@H](CCc3cc(F)c(C(F)(F)F)c(F)c3)C(=O)N2C1",
    "pKd": 9.47
  },
  {
    "compound": "CCC[C@H]1C(=O)N[C@@H]([C@@H](C)CC)C(=O)N(C)CC(=O)N(C)[C@H]2C/C=C\\CCN(C2=O)[C@@H](CC2CCCCC2)C(=O)N(C)CC(=O)N[C@@H](CCc2cc(F)c(C(F)(F)F)c(F)c2)C(=O)N2C[C@H](OCC)C[C@H]2C(=O)NC2(CCC2)C(=O)N(C)[C@@H](C2CCCC2)C(=O)N(C)[C@H](C(=O)N(C)C)CC(=O)N1C",
    "pKd": 9.82
  }
]
